Measured solubility (g/100 g solution) by item
- experimental-details: xn = mol fraction of the nth substance listed, in the solute-free solvent
- condition-parameters: 303.15 K; x2 = 0.1
measured-parameter: solubility (g/100 g solution)

- CC(C)C(=O)Nc1ccc([N+](=O)[O-])c(C(F)(F)F)c1 + CC(C)=O + CC(C)O: 41
- CC(C)C(=O)Nc1ccc([N+](=O)[O-])c(C(F)(F)F)c1 + C1CCOC1 + CC(C)O: 39
- CC(C)C(=O)Nc1ccc([N+](=O)[O-])c(C(F)(F)F)c1 + CCOC(C)=O + CC(C)O: 38.7
- Cl.NC1CCSC1=O (centres undefined) + CO + CC#N: 0.17

* * *

- experimental-details: xn = mol fraction of the nth substance listed, in the solute-free solvent
- condition-parameters: 313.15 K; x2 = 0.7297
measured-parameter: solubility (g/100 g solution)

- CC(C)C(=O)Nc1ccc([N+](=O)[O-])c(C(F)(F)F)c1 + CC(C)O + O: 36.1
- O=c1cc(CBr)c2ccccc2[nH]1 + CC(C)O + O: 0.158
- O=c1cc(CBr)c2ccccc2[nH]1 + CCCO + O: 0.2
- Nc1ncc(Br)nc1Br + CC(C)O + O: 0.562
- O=C1C=CC(=O)N1c1ccccc1Br + CC(C)O + O: 12.5

* * *

- experimental-details: xn = mol fraction of the nth substance listed, in the solute-free solvent
- condition-parameters: 278.15 K; x2 = 0.7297
measured-parameter: solubility (g/100 g solution)

* Nc1ncc(Br)nc1Br + CC(C)O + O | 0.197
* CC(C)C(=O)Nc1ccc([N+](=O)[O-])c(C(F)(F)F)c1 + CC(C)O + O | 16.9
* O=C1C=CC(=O)N1c1ccccc1Br + CC(C)O + O | 3.73
* O=c1cc(CBr)c2ccccc2[nH]1 + CCCO + O | 0.102
* O=c1cc(CBr)c2ccccc2[nH]1 + CC(C)O + O | 0.0639

* * *

- experimental-details: xn = mol fraction of the nth substance listed, in the solute-free solvent
- condition-parameters: 288.15 K; x2 = 0.2068
Note to self: values exactly at 0.2 are met. So solubility (g/100 g solution) at or above 0.2 is met, below is not met.

* Nc1cc(-c2ccncc2)c[nH]c1=O + CCO + O | not met
* O=C1C=CC(=O)N1c1ccccc1Br + CCO + O | met
* O=c1cc(CBr)c2ccccc2[nH]1 + CCO + O | not met
* Nc1ncc(Br)nc1Br + CCO + O | met
* CC(C)C(=O)Nc1ccc([N+](=O)[O-])c(C(F)(F)F)c1 + CCO + O | met

* * *

- experimental-details: xn = mol fraction of the nth substance listed, in the solute-free solvent
- condition-parameters: 303.15 K; x2 = 0.3103
measured-parameter: solubility (g/100 g solution)

- O=c1cc(CBr)c2ccccc2[nH]1 + CC(C)O + O: 0.123
- CC(C)C(=O)Nc1ccc([N+](=O)[O-])c(C(F)(F)F)c1 + CC(C)O + O: 7.81
- Nc1ncc(Br)nc1Br + CC(C)O + O: 0.318
- O=c1cc(CBr)c2ccccc2[nH]1 + CCCO + O: 0.161
- O=C1C=CC(=O)N1c1ccccc1Br + CC(C)O + O: 8.48
